- test.system: Fibroblast growth factor 10 (Homo sapiens)
- protocol.details: FGF10 binders on small-molecule microarrays, primary screen, biochemical, small-molecule microarray, 635 nm fluorescence (AID 1102)
- condition.set: FGF10 binding, fluorescence 635 nm, higher = more signal
Entries and their composite z-score values follow.
Lab note: record the figure alone, no unit after it.

Example results:
{"columns": ["compound", "composite z-score"],
 "data": [
  ["COC(=O)CC=C[C@@H](C)[C@@H](C=NOC[C@@H](O)[C@H]1O[C@@H]2OC(C)(C)O[C@@H]2[C@H]1O)OC", 0.247],
  ["CO[C@@H]1[C@H](O)CO[C@H]1C=Cc1ccccc1", 0.961]
]}

Qu. Supply reported composite z-score belonging to this compound: `C#CCCCON=C1C[C@@H](O)[C@@H](O)[C@@H]2[C@@H]3C(=O)N(C4CCCCC4)C(=O)[C@@H]3CC[C@@H]12`
Ans. 0.743

Qu. Supply reported composite z-score belonging to this compound: `C=CC[C@@H]1C=C[C@H](ON=C(C)CCN2CCCCc3nc(C)c(C)cc32)[C@@H](CO)O1`
Ans. 0.497

Qu. Supply reported composite z-score belonging to this compound: `CC(=O)OC[C@H]1O[C@@H](ON=C(C)CCC(=O)OC[C@H]2O[C@H](C#Cc3ccccc3)C=C[C@@H]2Oc2ccc(C)cc2)[C@H](OC(C)=O)[C@@H](OC(C)=O)[C@@H]1OC(C)=O`
Ans. 0.782

Qu. Supply reported composite z-score belonging to this compound: COC(=O)[C@H](C)NC(=O)CCC1CC(OC(=O)NCc2ccc3c(c2)OCO3)CC2(CCCC(COC(=O)NCCc3ccc(Cl)cc3)O2)O1 (stereo partly specified)
Ans. 0.382

Qu. Supply reported composite z-score belonging to this compound: `CN1CCc2nc(-c3ccccc3)c(-c3ccccc3)cc2C1`
Ans. 0.486

====

- Tested on: Lefty1
- protocol.details: Lefty1 binders on small-molecule microarrays, primary screen, biochemical, small-molecule microarray, 635/667 nm fluorescence (AID 1139)
- condition.set: small-molecule microarray binding, fluorescence 635/667; higher = more signal
measured.parameter: composite z-score
Lab note: record the figure alone, no unit after it.

Example results:
{"columns": ["compound", "reported.result"],
 "data": [
  ["COC(=O)CC=C[C@@H](C)[C@@H](C=NOC[C@@H](O)COCc1ccco1)OC", 1.02],
  ["CC(CCN1CCc2nc(-c3ccccc3)c(-c3ccccc3)cc2C1)=NOC(C)CN1CCCc2nc(C)c(C)cc21 (configuration not stated)", 0.659],
  ["CC(CCC(=O)OC[C@H]1O[C@H](C#Cc2ccccc2)C=C[C@@H]1Oc1ccc(C)cc1)=NO[C@H](C)c1cn([C@@H]2COC[C@H]2O)nn1", 0.317],
  ["O=C1CCCC=C1C(O)c1ccc([N+](=O)[O-])cc1 (configuration not stated)", 0.0283],
  ["CCN1C(=O)[C@H]2[C@H]3[C@H](O)[C@H](O)CC(=NOCC(C)C)[C@H]3CC[C@H]2C1=O", 0.717],
  ["CC(C)(C)N1C(=O)[C@H]2[C@H]3[C@H](O)[C@H](O)CC(=NOC[C@@H](O)COCc4ccco4)[C@H]3CC[C@H]2C1=O", -0.0429],
  ["CCOC(=O)[C@H](Cc1ccccc1)NC(=O)CCC1CC(OC(=O)NCc2cccc3ccccc23)CC2(CCCC(COC(=O)NCCc3ccc(Cl)cc3)O2)O1 (some centres not stated)", 0.414],
  ["CCOC(=O)CCN1C(=O)[C@H]2[C@H]3[C@H](O)[C@H](O)CC(=NOCC(C)C)[C@@H]3CC[C@H]2C1=O", 0.929],
  ["O=C1[C@H]2[C@H]3[C@H](O)[C@H](O)CC(=NO[C@@H]4O[C@H](CO)[C@@H](O)[C@H](O)[C@H]4O)[C@@H]3CC[C@H]2C(=O)N1c1cccc(Oc2ccccc2)c1", 0.879],
  ["CCN1C(=O)[C@H]2[C@H]3[C@H](O)[C@H](O)CC(=NNC(=O)OCc4ccccc4)[C@H]3CC[C@H]2C1=O", 0.235]
]}

Qu. # assay system Lefty1: give composite z-score of CCOC(=O)[C@H](Cc1ccccc1)NC(=O)CCC1CC(OC(=O)NCc2ccc3c(c2)OCO3)CC2(CCCC(COC(=O)NCCCN3CCCC3=O)O2)O1 (some centres not stated)
Ans. 0.428

Qu. # assay system Lefty1: give composite z-score of `COc1ccc(COC(=O)NN=C2C[C@@H](O)[C@@H](O)[C@@H]3[C@@H]4C(=O)N([C@@H](C)c5ccccc5)C(=O)[C@@H]4CC[C@@H]23)cc1`
Ans. 0.244

Qu. # assay system Lefty1: give composite z-score of COC(=O)[C@H](C)NC(=O)CCC1CC(OC(=O)NCc2cccc3ccccc23)CC2(CCCC(COC(=O)NCc3ccccc3)O2)O1 (some centres not stated)
Ans. 1.17

Qu. # assay system Lefty1: give composite z-score of `CCO[C@H](c1cc(OC)cc([N+](=O)[O-])c1OC)[C@H](C)[C@@H](OC)[C@H](C)C=CCC(=O)OC`
Ans. -0.125

Qu. # assay system Lefty1: give composite z-score of `CC(C)CON=C1C[C@@H](O)[C@@H](O)[C@@H]2[C@@H]3C(=O)N(Cc4ccc5c(c4)OCO5)C(=O)[C@@H]3CC[C@@H]12`
Ans. -0.0226

Qu. # assay system Lefty1: give composite z-score of `CC(=O)OC[C@H]1O[C@H](CC=NOC[C@@H](O)COCc2ccco2)C=C[C@@H]1OC(C)=O`
Ans. 1.52

Qu. # assay system Lefty1: give composite z-score of `CCN1C(C)=C(C(=O)OC)[C@@H](c2ccccc2)N2C(=O)[C@](O)(C(=O)OC)CC(C(C)=O)=C12`
Ans. 0.638

Qu. # assay system Lefty1: give composite z-score of CCOC(=O)[C@H](Cc1ccccc1)NC(=O)CCC1CC(OC(=O)NCc2cccc3ccccc23)CC2(CCCC(COC(=O)NCCc3ccccc3OC)O2)O1 (some centres not stated)
Ans. 0.99

Qu. # assay system Lefty1: give composite z-score of `COC(=O)[C@@H]1CC[C@H](C)[C@@H](c2ccc(C)cc2)N1C(=O)c1ccc(C=NOC[C@H]2O[C@H](c3ccccc3)C=C[C@@H]2Oc2ccc(OC)cc2)cc1`
Ans. 0.244

Qu. # assay system Lefty1: give composite z-score of `CC(=O)OC[C@H]1O[C@H](C#CCC2CCCCC2)C=C[C@@H]1OC(C)=O`
Ans. 0.513

Qu. # assay system Lefty1: give composite z-score of COC(=O)[C@H](C)NC(=O)CCC1CC(OC(=O)NCCc2ccc(F)cc2)CC2(CCCC(COC(=O)NCCOc3ccccc3)O2)O1 (some centres not stated)
Ans. 1.41

Qu. # assay system Lefty1: give composite z-score of `CC(C)C(=O)N[C@H]1CCCN1C(=O)C=Cc1ccccc1`
Ans. 1.13

Qu. # assay system Lefty1: give composite z-score of `CC(CCN1CCCCc2nc(C)c(C)cc21)=NOC[C@@H](O)[C@H]1O[C@@H]2OC(C)(C)O[C@@H]2[C@H]1O`
Ans. 1

Qu. # assay system Lefty1: give composite z-score of CCN1C(=O)[C@H]2[C@H]3[C@H](O)[C@H](O)CC(=NOC(C)CN4CCCc5nc(C)c(C)cc54)[C@@H]3CC[C@H]2C1=O (some centres not stated)
Ans. 0.737

Qu. # assay system Lefty1: give composite z-score of `CCCNC(=O)OC[C@H]1O[C@H](CCON=C2C[C@@H](O)[C@@H](O)[C@@H]3[C@@H]4C(=O)N(CC)C(=O)[C@@H]4CC[C@@H]23)C=C[C@@H]1Oc1ccc(OC)cc1`
Ans. 1.3

Qu. # assay system Lefty1: give composite z-score of `COc1ccc(COC(=O)NN=C2C[C@@H](O)[C@@H](O)[C@@H]3[C@@H]4C(=O)N([C@@H](C)c5ccccc5)C(=O)[C@@H]4CC[C@H]23)cc1`
Ans. -0.794

Qu. # assay system Lefty1: give composite z-score of COC(=O)[C@H](C)NC(=O)CCC1CC(OC(=O)NCCc2ccc(F)cc2)CC2(CCCC(COC(=O)NCc3ccccc3)O2)O1 (some centres not stated)
Ans. 0.875
